Target: UniProtKB P32305
Experiment: r5-HT7 binding assay, competitive radioligand binding with [3H]5-CT
Details: rat 5-HT7 receptor, HEK-293 membranes
Experimental: Receptor binding was performed using membrane fractions prepared from the HEK-293 cell line recombinantly expressing rat 5-HT7 receptors (NCBI accession NM_022938). Compound affinity for the rat 5-HT7 receptor subtype was evaluated by competitive radioligand binding assays using 5-carboxamido[^3H]tryptamine ([^3H]5-CT) (Amersham Biosciences, cat. 90000403) detection. […] Nonspecific binding was determined in the presence of 10 μM fluoxetine. […]
pKi: −log10 of the molar value. Where a name gives a salt, the structure may show the parent alone.
outcome.measure: pKi

Fc1cc(Cl)cc(OC2CNC2)c1OCc1ccccc1 : 5.85
CC(Oc1ccc(Cl)cc1OC1CCNCC1)c1cccc(OC(F)(F)F)c1 (racemic) : 6.33
Cc1cc(COc2ccc(Cl)cc2OC2CNC2)n(C)n1 : 5.30
CC(Oc1ccc(Cl)cc1OC1CNC1)c1ccccc1F (racemic) : 7.48
Brc1ccc(OCc2ccccc2)c(OC2CNC2)c1 : 8.05

(a) CC(C)(C)c1ccc2c(c1)CCC2Oc1ccc(Br)cc1OC1CNC1 (stereo not drawn)
(b) CC(Oc1ccc(Cl)cc1OC1CNC1)c1ccc(F)c(F)c1 (racemic) [Example 128, trifluoroacetate]
[Q] In terms of reported pKi, does a or b have the smaller number? Please identify the chosen entry by its label.
[A] a

###

Target: h5HT2C (Homo sapiens (Human), UniProt P28335)
Sequence (P28335 33-458): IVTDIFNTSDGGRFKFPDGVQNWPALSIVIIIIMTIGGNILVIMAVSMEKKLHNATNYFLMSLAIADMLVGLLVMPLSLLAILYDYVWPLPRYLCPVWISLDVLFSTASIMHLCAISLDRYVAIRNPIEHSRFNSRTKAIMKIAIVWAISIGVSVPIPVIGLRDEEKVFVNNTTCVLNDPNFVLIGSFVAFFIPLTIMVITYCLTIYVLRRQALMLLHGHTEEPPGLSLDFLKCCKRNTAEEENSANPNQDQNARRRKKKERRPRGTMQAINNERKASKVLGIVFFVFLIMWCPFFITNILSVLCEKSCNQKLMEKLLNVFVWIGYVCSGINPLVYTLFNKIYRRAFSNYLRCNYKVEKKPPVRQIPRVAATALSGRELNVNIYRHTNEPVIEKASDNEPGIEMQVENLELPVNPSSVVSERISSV
Test: h5HT2C binding
outcome.measure: Ki (nM)

Record excerpt, results attached:
C[C@@H]1NC[C@H]1Oc1cc(Br)ccc1OCc1cccc(F)c1 (racemic) : 31
Fc1ccc(Oc2cc(Cl)ccc2O[C@@H]2CCNC2)cc1 : 240
CC1(Oc2cc(Br)ccc2OCCc2ccccc2)CNC1 : 26
Cc1cc(Oc2cc(Cl)ccc2O[C@H]2CCNC2)ccc1F : 230

(a) Cc1ccc(Oc2cc(Cl)ccc2O[C@@H]2CCNC2)cc1
(b) Cc1ccc(Oc2cc(Cl)ccc2O[C@@H]2CCN(C)C2)cc1
[Q] In terms of reported Ki, does a or b have the smaller number? Please identify the chosen entry by its label.
[A] a

(A) CN1CC[C@@H](Oc2ccc(Cl)cc2Oc2ccc(F)cc2)C1
(B) Clc1ccc(Oc2cc(Cl)ccc2O[C@H]2CCNC2)cc1
(C) Cc1cccc(Oc2cc(Cl)ccc2O[C@H]2CCNC2)c1
(D) Clc1ccc(OC2CN(c3ccccc3)C2)c(OC2CNC2)c1
[Q] Put these in order: smallest Ki first, largest last. Hello, could you send the labels back in the order asked? Thank you.
[A] C, B, A, D
(C: 150 nM, B: 220 nM, A: 350 nM, D: 1010 nM)

(a) Cc1ccccc1Oc1cc(Cl)ccc1O[C@H]1CCNC1
(b) Cc1ccc(Oc2cc(Cl)ccc2O[C@H]2CCNC2)cc1
(c) Clc1cccc(Oc2cc(Cl)ccc2O[C@H]2CCNC2)c1
[Q] # rank_down: sort by Ki, max first Hello, could you send the labels back in the order asked? Thank you.
[A] a, b, c
(a: 330 nM, b: 230 nM, c: 120 nM)

(I) Fc1ccc(Oc2cc(Cl)ccc2O[C@H]2CCNC2)cc1
(II) Clc1ccc(O[C@H]2CCNC2)c(Oc2ccc(Br)cc2)c1
[Q] Among I and II , which shows a numerically higher Ki result? Please identify the chosen entry by its label.
[A] I
(I: 400 nM, II: 120 nM)

###

Target: r5-HT7 receptor (Rattus norvegicus (Rat))
Sequence (P32305 1-435): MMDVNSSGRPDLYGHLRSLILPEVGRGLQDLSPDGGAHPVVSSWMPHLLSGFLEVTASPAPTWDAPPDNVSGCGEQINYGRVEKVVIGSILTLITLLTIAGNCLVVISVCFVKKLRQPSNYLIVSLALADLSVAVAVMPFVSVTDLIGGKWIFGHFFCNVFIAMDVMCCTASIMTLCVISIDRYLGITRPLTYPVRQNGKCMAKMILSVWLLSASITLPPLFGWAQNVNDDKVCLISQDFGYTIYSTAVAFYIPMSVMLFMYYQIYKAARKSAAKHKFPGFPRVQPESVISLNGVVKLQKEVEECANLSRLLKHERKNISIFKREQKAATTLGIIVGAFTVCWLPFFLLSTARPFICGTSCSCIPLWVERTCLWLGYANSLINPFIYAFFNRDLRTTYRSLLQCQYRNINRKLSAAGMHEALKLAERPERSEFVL
Assay: HitHunter cAMP assay, antagonist testing against 100 nM 5-CT
Type: cell-based
Settings: antagonist testing, 100 nM 5-CT challenge, HEK-293 r5-HT7; read-out: R5HT7 cAMP pKb (converted)
outcome.measure: Kb (nM)

Record excerpt, results attached:
CC(Oc1ccc(Cl)cc1OC1CNC1)c1cccc(Cl)c1 (racemic) : 31.6
N#Cc1cccc(COc2ccc(Br)cc2OC2CNC2)c1 : 20
Clc1cccc(COc2ccc(Br)cc2OC2CN(C3CCC3)C2)c1 : 2.51

(1) CC(Oc1ccc(Br)cc1OC1CNC1)c1cccc(C(F)(F)F)c1 (racemic)
(2) CCN1CC(Oc2cc(F)ccc2OCc2cccc(Cl)c2)C1
(3) O=C(c1ccc(Cl)cc1)c1ccc(Br)cc1OC1CNC1
(4) Fc1cccc(COc2ccc(Br)cc2OC2CCNCC2)c1
(5) Clc1ccc(Oc2ccc(Br)cc2OC2CNC2)cc1
[Q] Put these in order: smallest Kb first, largest last. Hello, could you send the labels back in the order asked? Thank you.
[A] 2, 1, 5, 3, 4

###

Target: rat 5-HT7 receptor (Rattus norvegicus (Rat))
Test: r5-HT7 binding assay, competitive radioligand binding with [3H]5-CT
Details: rat 5-HT7 receptor, HEK-293 membranes
Where a name gives a salt, the structure may show the parent alone.
outcome.measure: Ki (nM)

Record excerpt, results attached:
CC(Oc1ccc(Br)cc1OC1CNC1)c1cccc(Cl)c1 (racemic) [Example 111] : 10
Clc1ccc(COc2ccc(Br)cc2OC2CNC2)cc1 [Example 14, trifluoroacetate] : 12
Fc1ccc2c(c1)CCC2Oc1ccc(Br)cc1OC1CNC1 (racemic) [Example 154] : 18

(A) Cc1nc(C)c(C(C)Oc2ccc(Cl)cc2OC2CNC2)s1 (centres unmarked) [Example 134]
(B) Clc1ccc(OCC2CCOC2)c(OC2CNC2)c1 (centres unmarked) [Example 163]
[Q] Among A and B , which shows a numerically higher Ki result? Please identify the chosen entry by its label.
[A] A
(A: 3830 nM, B: 766 nM)

###

Target: rat 5-HT7 receptor (Rattus norvegicus (Rat), UniProt P32305)
Sequence (P32305 1-435): as above
Test: r5-HT7 binding assay, competitive radioligand binding with [3H]5-CT
Settings: rat 5-HT7 receptor, HEK-293 membranes
Structures can show the parent of a compound that is named as a salt.
outcome.measure: Ki (µM)

Record excerpt, results attached:
Fc1cccc(COc2ccc(Br)cc2OC2CNC2)c1 [Example 17] : 0.01
CN1CCC(Oc2cc(Br)ccc2OCc2cccc(F)c2)C1 (racemic) [Example 97] : 0.034
Fc1cccc(COc2ccc(Br)cc2OC2CCNCC2)c1 [Example 68] : 0.017
COc1ccc(CCOc2ccc(Cl)cc2OC2CNC2)cc1 [Example 194] : 0.004
Clc1cccc(COc2ccc(Cl)cc2O[C@@H]2CCNC2)c1 [Example 58] : 0.12
Cc1nc(-c2cccc(COc3ccc(Cl)cc3OC3CNC3)c2)no1 [Example 31, hydrochloride] : 0.1
Clc1ccc(OCc2ccc3occc3c2)c(OC2CNC2)c1 [Example 83] : 0.016
CC(Oc1ccc(Cl)cc1OC1CNC1)c1cccc(C#N)c1 (racemic) [Example 125] : 0.104

(1) Clc1ccc(OCc2ccccc2)c(OC2CCNCC2)c1 [Example 62]
(2) Fc1ccc(CCOc2ccc(Cl)cc2OC2CNC2)cc1 [Example 193]
(3) Clc1cccc(COc2cc(Cl)ccc2O[C@@H]2CCNC2)c1 [Example 92]
(4) Fc1ccc(COc2ccc(Cl)cc2OC2CNC2)cc1C(F)(F)F [Example 47]
[Q] Put these in order: smallest Ki first, largest last. Hello, could you send the labels back in the order asked? Thank you.
[A] 2, 4, 1, 3
(2: 0.005 µM, 4: 0.011 µM, 1: 0.034 µM, 3: 0.26 µM)

###

Target: rat 5-HT7 receptor (Rattus norvegicus (Rat), UniProt P32305)
Test: r5-HT7 binding assay, competitive radioligand binding with [3H]5-CT
Details: rat 5-HT7, HEK-293 membranes
outcome.measure: Ki (µM)

(1) CC(Oc1cc(Br)ccc1OCc1cccc(Cl)c1)C1(O)CNC1 (centres unmarked) [Example 236]
(2) COc1ccc(C(=O)c2ccc(Br)cc2OC2CNC2)cc1 [Example 291]
(3) Clc1ccc(O[C@H]2CCNC2)c(Oc2ccc(Br)cc2)c1 [Example 277]
[Q] Parameters: sort_field (Ki), sort_dir (desc). Hello, could you send the labels back in the order asked? Thank you.
[A] 3, 1, 2
(3: 5.5 µM, 1: 0.831 µM, 2: 0.034 µM)

###

Biological target: rat 5-HT7 receptor (Rattus norvegicus (Rat))
Assay: r5-HT7 binding assay, competitive radioligand binding with [3H]5-CT
Details: rat 5-HT7 receptor, HEK-293 membranes
Counter-ions that a name gives are not always drawn.
outcome.measure: Ki (nM)

Record excerpt, results attached:
FC(F)(F)c1cc(COc2ccc(Cl)cc2OC2CNC2)ccc1Cl [Example 49] : 13
Fc1ccc(COc2ccc(Br)cc2OC2CNC2)cc1Cl [Example 12] : 11
Cn1nnc2ccc(COc3ccc(Cl)cc3OC3CNC3)cc21 [Example 85] : 95
Brc1ccc(OCCc2ccccc2)c(OC2CNC2)c1 [Example 195] : 2
Clc1ccc(OCC2CCCCC2)c(OC2CNC2)c1 [Example 73, trifluoroacetate] : 23

(P) C[C@@H](Oc1ccc(Cl)cc1OC1CCCNC1)c1cccc(C(F)(F)F)c1 (stereo partly shown) [Example 139]
(Q) Fc1ccccc1COc1ccc(Br)cc1OC1CCNCC1 [Example 67]
[Q] Among P and Q , which shows a numerically higher Ki result? Please identify the chosen entry by its label.
[A] P
(P: 189 nM, Q: 13 nM)

(a) Clc1ccc(OCc2cnco2)c(OC2CNC2)c1 [Example 87]
(b) Cc1cc(COc2ccc(Cl)cc2OC2CNC2)no1 [Example 30]
[Q] In terms of reported Ki, does a or b have the smaller number? Please identify the chosen entry by its label.
[A] b

(1) CC(Oc1ccc(Cl)cc1OC1CNC1)c1ccccc1C(F)(F)F (racemic) [Example 122]
(2) CN1CC[C@@H](Oc2ccc(Cl)cc2OCc2cccc(Cl)c2)C1 [Example 93]
(3) Fc1cccc(COc2ccc(Br)cc2OC2CN(C3CCC3)C2)c1 [Example 21]
(4) CC(Oc1ccc(Cl)cc1OC1CNC1)c1nc2ccccc2s1 (stereo not shown) [Example 131]
[Q] # rank_down: sort by Ki, max first Hello, could you send the labels back in the order asked? Thank you.
[A] 1, 2, 4, 3
